- System: HepG2
- method-summary: GSK_TCMDC: Percent inhibition of human HepG2 cell line. Test compounds present at 10uM.
- Format: functional
Grouping by measured Inhibition is done with the following cut points: small value (below 8%), mid value (8% to below 20%), large value (20% or more)

The following compounds have reported results that may help.
COc1cc2nc(N3CCN(c4nc(N)c5cc(OC)c(OC)cc5n4)CC3)nc(N)c2cc1OC	mid value
Cc1cccc(C(=O)NCCCN2CCC(NC(=O)/C=C/c3ccc(Cl)c(Cl)c3)CC2)c1.O=C(O)C(F)(F)F	large value

input: Which category fits this record: Cc1ccc(CNc2cc(C(F)(F)F)nc(-c3ccc(S(C)(=O)=O)cc3)n2)cc1
output: small value

input: Which category fits this record: Cc1nc2ccc(F)cc2n1C1CCN(C(=O)Cc2ccc(F)c(F)c2)CC1
output: small value

input: Which category fits this record: NC(=O)c1ccccc1Nc1nc(Nc2cc[nH]n2)ncc1Cl
output: large value

input: Which category fits this record: CCNC(=O)c1cc(S(=O)(=O)N2CCN(c3ccccn3)CC2)cs1
output: small value

input: Which category fits this record: COc1cc2nc(N(C)CC3COc4ccccc4O3)nc(N)c2cc1OC.Cl (centres undefined)
output: mid value

input: Which category fits this record: Cc1ccccc1Nc1nc(NCCc2ccccc2)nc2ccccc12
output: large value

input: Which category fits this record: Clc1ccc2c(NN=Cc3cccs3)ccnc2c1
output: small value

input: Which category fits this record: CN(CCN(C)CC(O)c1ccc(Cl)c(Cl)c1)CC(O)c1ccc(Cl)c(Cl)c1.Cl (centres undefined)
output: large value

input: Which category fits this record: CCn1c(-c2nonc2N)nc2c(-c3cccc(NC(=O)Nc4cccc(C(F)(F)F)c4)c3)ncc(OCCCN)c21.O=C(O)C(F)(F)F
output: large value

input: Which category fits this record: COc1cc(F)c2ncc(C#N)c(CCN3CCC(NCc4ccc5c(c4)OCCO5)CC3)c2c1.Cl
output: small value

input: Which category fits this record: CN1CCCC(CN2CCN(Cc3ccc(-c4cccc(-c5nc6ccccc6[nH]5)c4)cc3)CC2)C1.O=C(O)C(F)(F)F (centres undefined)
output: large value

input: Which category fits this record: COc1ccc(NC(=O)/C=C/c2ccc(-c3ccccc3)cc2)cc1N1CCN(C)CC1.O=C(O)C(=O)O
output: large value

input: Which category fits this record: CCOC(=O)CNC(=O)N(CCN(Cc1ccccc1)C(=O)NCC(=O)OCC)Cc1ccccc1
output: mid value

input: Which category fits this record: Cc1cc(OCc2ccccc2)c(OCc2ccccc2)cc1C(O)CN(C)Cc1ccccc1.Cl (centres undefined)
output: mid value

input: Which category fits this record: O=C(Cc1ccccc1)NC(c1ccco1)c1cc(Cl)c2cccnc2c1O (centres undefined)
output: large value

input: Which category fits this record: CC(C)CCN(Cc1cncn1Cc1ccccc1F)C(=O)c1cncc(-c2ccccc2)c1
output: small value
